Target or system IRAK4 (Homo sapiens (Human)); metric IC50; compiled from varied reports.
measured attribute: IC50 (nM)

A selection of reference data follows.
INSERT INTO results (compound, measured_attribute, output_unit, result) VALUES
  ('CC(C)Nc1cc(-c2cnc3cc(C#N)cnn23)ncc1C(=O)NCC(F)C1CCNCC1 (centres unmarked)', 'IC50', 'nM', 2),
  ('Cn1cc(NC(=O)c2ccc3ccc(N4C[C@@H]5CN[C@@H](C5)C4)nn23)c(C(F)(F)F)n1 (single isomer, unassigned)', 'IC50', 'nM', 85);

[A] CC(C)(O)[C@H](F)CNC(=O)c1cnc(-c2cnn3cc(Cl)cnc23)cc1Nc1cnn(C2COC2)c1
[B] CCOC(=O)Cn1cc(-c2cnc(-n3ncc4cc(C#N)cnc43)cc2NC(C)C)nn1
[C] CC(C)(O)[C@H](F)CNC(=O)c1cnc(Nc2ccn3nccc3n2)cc1NC1COCCC1F (some centres unmarked)
Ask: Rank by IC50 (largest to smallest). I'd appreciate it if you listed the labels in the requested order.
Result: C, B, A
(C: 8.8 nM, B: 2 nM, A: 1 nM)
